# target-of-assay: T1, Siglec-9 Fc protein (human)
# T1 construct: Produced in CHO cells; also called human Siglec-9 Fc
# T1 sequence (chain, as listed by the source limits assumed): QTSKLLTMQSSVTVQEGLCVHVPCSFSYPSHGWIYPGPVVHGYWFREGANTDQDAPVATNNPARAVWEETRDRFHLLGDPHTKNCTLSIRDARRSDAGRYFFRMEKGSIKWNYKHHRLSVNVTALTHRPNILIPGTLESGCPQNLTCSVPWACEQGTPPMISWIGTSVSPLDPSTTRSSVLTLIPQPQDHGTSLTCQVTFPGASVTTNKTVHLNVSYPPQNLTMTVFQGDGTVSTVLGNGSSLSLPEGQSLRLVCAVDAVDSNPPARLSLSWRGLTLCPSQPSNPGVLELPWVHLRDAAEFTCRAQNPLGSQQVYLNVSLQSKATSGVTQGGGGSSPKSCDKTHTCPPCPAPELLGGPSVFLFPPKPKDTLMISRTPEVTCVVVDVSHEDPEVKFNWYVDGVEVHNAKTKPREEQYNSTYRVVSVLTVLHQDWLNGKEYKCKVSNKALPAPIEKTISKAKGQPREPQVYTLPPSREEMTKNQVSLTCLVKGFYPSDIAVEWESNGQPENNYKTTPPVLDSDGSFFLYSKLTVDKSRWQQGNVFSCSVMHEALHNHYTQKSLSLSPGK
# method-description: SPR (Biacore T200), Fab over immobilized Siglec-9 Fc, 1:1 model

binder	koff, s⁻¹
Fab.B (Fab of mAbB) (Fab, V domains shown) VH: QVQLQQPGAELVKPGASVKLSCKASVYTFTSYWMHWVKQRPGQGLEWIGEINPSNGHTNYNEKFKTKAKLTVDKSSSTAYMQLSSLTSEDSAVYFCANGVETYDFDDAMDYWGQGTSVTVSS VL: DIQMTQTTSSLSASLGDRVTISCRASQDINNYLNWYQQKPDGTVKLLIYFTSRLHSGVPSRFSGSGSGTDYSLTISNLEQEDIATYFCQQGDTFPFTFGGGTKLEIK	0.00031
Fab.E (Fab of mAbE) (Fab, V domains shown) VH: DVQLVESGGGLVQPGGSRKLSCAASGFTFSTFGMHWVRQAPEKGLEWVAYISSGSNAIYYADTVKGRFTISRDNPKNTLFLQMTSLRSEDTAMYYCASPGYGAWFAYWGQGTLVTVSA VL: ENVLTQSPAIMSASPGEKVTMTCRASSSVSSAYLHWYQQKSGASPKLWIYSTSNLASGVPARFSGSGSGTSYSLTISSVEAEDAATYYCQQYSAYPYTFGGGTKLEIK	0.0019
Fab.D (Fab of mAbD) (Fab, V domains shown) VH: QIQLVQSGPELKKPGETVKISCKASGYTFTDYSMHWVKQAPGKGLKWMGWIITETGEPTYADDFRGRFAFSLETSANTAYLQINNLKNEDTATYFCARDFDGYWGQGTTLTVSS VL: DILMTQSPASLSASVGETVTITCRASENIYSYLAWYQQKRGKSPQFLVYNAKTLTEGVPSRFRGSGSGTQFSLKINSLQPEDFGTYYCQHHYGFPWTFGGGTKLEIK	0.00011
Fab2 (Fab of mAb2) (Fab, V domains shown, Fab fragment of the antibody) VH: EVQLQESGPGLVKPSQSLSLTCTVTGYSITGGFAWNWIRQFPGNTLEWMGYIGYGGSTSYNPSLNSRISITRDTSKNHFFLQFNSVTTEDSATYYCARGDYLFAYWGQGTLVTVSA VL: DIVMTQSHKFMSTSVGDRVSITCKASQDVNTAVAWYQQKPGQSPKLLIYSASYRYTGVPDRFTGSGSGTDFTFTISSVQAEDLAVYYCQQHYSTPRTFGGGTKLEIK	0.00017
Fab.C (Fab of mAbC) (Fab, V domains shown) VH: QIQLVQSGPELKKPGETVKISCKASGYTFTNYEMNWVKEAPGKGLKWMGWINTYTGESTYADDFKGRFAFSLETSASTVYLQINNLKDEDVATYFCVRDDYGRSYGFAYWGQGTLVTVSA VL: NIVLTQSPASLTVSLGQRANISCRASESVDSYGNSFMHWYQQKPGQPPKLLIYLASKLESGVPARFSGSGSRTDFTLTIDPVETDDAATYYCHQNNEDPPWTFGGGTKLEIK	0.00043
Fab1 (Fab of mAb1) (Fab, V domains shown) VH: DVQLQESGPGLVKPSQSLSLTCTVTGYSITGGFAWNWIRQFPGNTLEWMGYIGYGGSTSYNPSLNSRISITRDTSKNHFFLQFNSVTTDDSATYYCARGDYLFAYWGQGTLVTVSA VL: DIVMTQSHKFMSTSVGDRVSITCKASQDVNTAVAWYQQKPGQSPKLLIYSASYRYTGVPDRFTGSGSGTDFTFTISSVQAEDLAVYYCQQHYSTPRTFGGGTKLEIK	0.00016
Fab.A (Fab of mAbA) (Fab, V domains shown) VH: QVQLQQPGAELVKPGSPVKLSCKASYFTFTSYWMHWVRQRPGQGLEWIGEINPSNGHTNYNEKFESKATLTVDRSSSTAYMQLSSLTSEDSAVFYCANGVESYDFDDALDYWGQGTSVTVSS VL: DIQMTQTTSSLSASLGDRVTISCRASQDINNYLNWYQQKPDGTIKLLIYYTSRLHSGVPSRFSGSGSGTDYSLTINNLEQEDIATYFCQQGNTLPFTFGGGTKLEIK	2.5e-05
Fab.F (Fab of mAbF) (Fab, V domains shown) VH: QVQLQQSGPEVVRPGVSVKISCKGSGYTFTDYSMHWVKQSHAKSLEWIGVISTYNGNTNYNQKFKGKATMTVDKSSSTAYMELARLTSEDSAIYYCARRGYYGSSSWFGYWGQGTLVTVSA VL: DIVMTQSQKFMSTSVGDRVSVTCKASQNVGTDVAWYQQKPGQSPEALIYSASYRYSGVPDRFTGSGSGADFTLTISNVQSEDLAEYFCQQYNSFPYTFGGGTKLEIK	0.00046
